system: C4-2B prostate cancer cells (PSMA-positive); test: Cell viability assay (MTT), dark and blue light; format: cell-based, Human; details: C4-2b, blue light; read-out: GI50
Binarize GI50 at 3000 nM; below is true, at or above is false.

| compound | cat |
| --- | --- |
| F[P-](F)(F)(F)(F)F.O=C(O)CC[C@H](NC(=O)N[C@@H](CCCCNC(=O)CCn1cc[n+]2[c]1[Ir-3]13([c]4cccc5ccc6ccc[n+]1c6c45)([c]1cccc4ccc5ccc[n+]3c5c14)[n+]1ccccc1-2)C(=O)O)C(=O)O [III-i] | true |

Prompt: Please indicate whether the reported GI50 of F[P-](F)(F)(F)(F)F.O=C(O)CC[C@H](NC(=O)N[C@@H](CCCCNC(=O)CCn1cc[n+]2[c]1[Ir-3]13([c]4ccccc4-c4ccc5ccccc5[n+]41)([c]1ccccc1-c1ccc4ccccc4[n+]13)[n+]1ccccc1-2)C(=O)O)C(=O)O [III-g] is strictly below 3000 nM.
Response: false

Prompt: Please indicate whether the reported GI50 of F[P-](F)(F)(F)(F)F.O=C(O)CC[C@H](NC(=O)N[C@@H](CCCCNC(=O)CCn1cc[n+]2[c]1[Ir-3]13([c]4ccccc4-c4sc5ccccc5[n+]41)([c]1ccccc1-c1sc4ccccc4[n+]13)[n+]1ccccc1-2)C(=O)O)C(=O)O [III-k] is strictly below 3000 nM.
Response: true

Prompt: Please indicate whether the reported GI50 of F[P-](F)(F)(F)(F)F.O=C(O)CC[C@H](NC(=O)N[C@@H](CCCCNC(=O)CCn1cc[n+]2[c]1[Ir-3]13([c]4ccccc4-c4c5ccccc5cc[n+]41)([c]1ccccc1-c1c4ccccc4cc[n+]13)[n+]1ccccc1-2)C(=O)O)C(=O)O [III-h] is strictly below 3000 nM.
Response: true

Prompt: Please indicate whether the reported GI50 of F[P-](F)(F)(F)(F)F.O=C(O)CC[C@H](NC(=O)N[C@@H](CCCCNC(=O)CCn1cc[n+]2[c]1[Ir-3]13([c]4c(sc5ccccc45)-c4cccc[n+]41)([c]1c(sc4ccccc14)-c1cccc[n+]13)[n+]1ccccc1-2)C(=O)O)C(=O)O [III-j] is strictly below 3000 nM.
Response: true

* * *

Experiment: Luminescence emission spectra and quantum yield
Assay type: physicochemical
Settings: room temperature; reference POPOP in hexane or rhodamine B in ethanol
Method: Fluorescence and phosphorescence emission spectra were obtained with a HORIBA JOBIN YVON, fluromax-4 and spectrofluorometer. Luminescence quantum yields were measured according to the method of Demas and Crosby, on solution samples at RT. The quantum yield is defined as: […] Where ΦP is the quantum yield of the sample, ΦR is the know quantum yield of the reference standard. […] The luminescence spectra of vectorized iridium(III) complexes were determined in CH2Cl2 at room temperature (Table 3).
property.measured: ΦP emission phosphorescence quantum yield (%)
Please respond with the number in % and leave the unit unwritten.

The following molecules have reported results that may help.
| molecule | units | measured.result |
| --- | --- | --- |
| F[P-](F)(F)(F)(F)F.O=C(CCCC[C@@H]1SC[C@@H]2NC(=O)N[C@@H]21)NCCCn1cc[n+]2[c]1[Ir-3]13([c]4ccccc4-c4c5ccccc5cc[n+]41)([c]1ccccc1-c1c4ccccc4cc[n+]13)[n+]1ccccc1-2 [I-h] | % | 3.0 |
| F[P-](F)(F)(F)(F)F.O=C(O)CC[C@H](NC(=O)N[C@@H](CCCCNC(=O)CCn1cc[n+]2[c]1[Ir-3]13([c]4ccccc4-c4c5ccccc5cc[n+]41)([c]1ccccc1-c1c4ccccc4cc[n+]13)[n+]1ccccc1-2)C(=O)O)C(=O)O [III-h] | % | 3.0 |
| COC(=O)c1ccc2[c](c1)[Ir-3]13([c]4cc(C(=O)OC)ccc4-c4cccc[n+]41)([c]1n(CCCNC(=O)CCCC[C@@H]4SC[C@@H]5NC(=O)N[C@@H]54)cc[n+]1-c1cccc[n+]13)[n+]1ccccc1-2.F[P-](F)(F)(F)(F)F [I-c] | % | 5.9 |

Read the next record carefully.
Prompt: // Input: CC(C)=CCC/C(C)=C/CC/C(C)=C/CSc1ccccc1C(=O)NCCCn1cc[n+]2[c]1[Ir-3]13([c]4ccccc4-c4cccc[n+]41)([c]1ccccc1-c1cccc[n+]13)[n+]1ccccc1-2.F[P-](F)(F)(F)(F)F [II-a] . Output its ΦP emission phosphorescence quantum yield only.
Response: 0.5

meta.source: patent US20260209260A1
